Listed compounds paired with reported IC50
- TARGET DESC: FAAH (Mus musculus (Mouse), UniProt O08914)
- Sequence (O08914 whole entry): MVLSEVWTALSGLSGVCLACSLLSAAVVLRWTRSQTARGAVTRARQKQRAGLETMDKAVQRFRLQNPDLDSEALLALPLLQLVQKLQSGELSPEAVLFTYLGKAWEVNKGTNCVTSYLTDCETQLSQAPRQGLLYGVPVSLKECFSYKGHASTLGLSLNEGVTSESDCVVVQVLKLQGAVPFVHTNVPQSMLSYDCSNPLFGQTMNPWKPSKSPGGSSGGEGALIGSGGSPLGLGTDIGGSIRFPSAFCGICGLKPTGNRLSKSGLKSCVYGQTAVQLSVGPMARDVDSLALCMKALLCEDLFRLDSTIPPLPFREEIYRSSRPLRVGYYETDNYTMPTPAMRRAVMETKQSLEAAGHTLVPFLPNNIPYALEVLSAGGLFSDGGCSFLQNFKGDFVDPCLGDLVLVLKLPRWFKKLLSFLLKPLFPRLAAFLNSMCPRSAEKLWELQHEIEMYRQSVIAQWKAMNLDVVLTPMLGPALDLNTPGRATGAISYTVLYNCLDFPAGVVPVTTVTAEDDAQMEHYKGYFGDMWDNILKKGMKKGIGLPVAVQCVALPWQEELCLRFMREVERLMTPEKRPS

Please review the entries below; each comes with its answer.
- COMPOUND: "CC(=O)N(C)c1cnn(C(=O)N2CCC3(CCN(Cc4ccc(C(F)(F)F)cc4)C3)C2)c1 (centres unmarked)"
  OBSERVED RESULT: "100 to 1000 nM"
- COMPOUND: "CC(=O)N(C)c1cnn(C(=O)N2CC3(CCN(Cc4cccc(Oc5ccccc5)c4)CC3)C2)c1"
  OBSERVED RESULT: "≤ 100 nM"
- COMPOUND: "CS(=O)(=O)Nc1cnn(C(=O)N2CC3CN(Cc4ccccc4Cl)CC3C2)c1 (centres unmarked)"
  OBSERVED RESULT: "100 to 1000 nM"
- COMPOUND: "CC(=O)N(C)c1cnn(C(=O)N2C[C@H]3C[C@H](NCc4ccccc4Cl)C[C@H]3C2)c1"
  OBSERVED RESULT: "100 to 1000 nM"
- COMPOUND: "CC(=O)N(C)c1cnn(C(=O)N2CC3CN(Cc4cc(Cl)cc(Cl)c4)CC3C2)c1 (centres unmarked)"
  OBSERVED RESULT: "≤ 100 nM"

// next entry
Test system FAAH (Mus musculus (Mouse), UniProt O08914); read-out IC50; what value for CC(=O)N(C)c1cnn(C(=O)N2CC3CN(Cc4cccc(F)c4)CC3C2)c1 (centres unmarked) ?
100 to 1000 nM

====

Listed compounds paired with reported inhibition at 1 µM
- TARGET DESC: MAGL (Mus musculus (Mouse))
- TEST: In vitro competitive activity-based protein profiling, MAGL (mouse)
- Assay type: biochemical
- CONDITION CONTEXT: 1 μM, read-out: MAGL % inh. 1 μM (mouse)

- COMPOUND: "CC(=O)N(C)c1cnn(C(=O)N2CCN(Cc3cccc(N4CCCC4)c3)CC2)c1 [Example 208]"
  OBSERVED RESULT: "≥ 75%"

inhibition at 1 µM for CC(=O)N(C)c1cnn(C(=O)N2C[C@H]3C[C@H](N(Cc4cccc(Cl)c4)C(C)=O)C[C@H]3C2)c1 [Example 173] ?
≥ 75%

inhibition at 1 µM for CC(=O)N(C)c1cnn(C(=O)N2C[C@H]3C[C@H](N(C)Cc4cc(C(F)(F)F)ccc4N4CCCC4)C[C@H]3C2)c1 [Example 144] ?
≥ 75%

inhibition at 1 µM for CC(=O)N(C)c1cnn(C(=O)N2CC3CN(Cc4ccc(C)cc4)CC3C2)c1 (stereo not shown) [Example 91] ?
50 to 75%

inhibition at 1 µM for CC(=O)N(C)c1cnn(C(=O)N2CC3CN(Cc4cccc(Oc5ccccc5)c4)CC3C2)c1 (stereo not shown) [Example 234] ?
≥ 75%

inhibition at 1 µM for CC(=O)N(C)c1cnn(C(=O)N2CC3CN(Cc4ccc(OCc5ccccc5)cc4)CC3C2)c1 (stereo not shown) [Example 248] ?
≥ 75%

inhibition at 1 µM for CC(=O)N(C)c1cnn(C(=O)N2CC3(CCN(Cc4cccc(Cl)c4)CC3)C2)c1 [Example 85] ?
50 to 75%

inhibition at 1 µM for CC(=O)N(C)c1cnn(C(=O)N2CCN(Cc3ccc(C(F)(F)F)cc3N3C4CCC3COC4)CC2)c1 [Example 195] ?
≥ 75%

inhibition at 1 µM for CC(=O)N(C)c1cnn(C(=O)N2C[C@H]3C[C@@H](N(Cc4cccc(Cl)c4)C(C)=O)C[C@H]3C2)c1 [Example 170] ?
≥ 75%

====

- TARGET DESC: FAAH (Mus musculus (Mouse))
READOUT NAME: IC50

- COMPOUND: "CC(=O)N(C)c1cnn(C(=O)N2CC3CN(Cc4cc(Cl)cc(OCc5ccccc5)c4)CC3C2)c1 (centres unmarked) [Example 251]"
  IC50: "≤ 0.1 µM"

Test system FAAH (Mus musculus (Mouse)); read-out IC50; what value for CC(=O)N(C)c1cnn(C(=O)N2C[C@H]3C[C@@H](N(C)Cc4ccc(N5C6CCC5COC6)c(C(F)(F)F)c4)C[C@H]3C2)c1 [Example 150] ?
≤ 0.1 µM

Test system FAAH (Mus musculus (Mouse)); read-out IC50; what value for CC(=O)N(C)c1cnn(C(=O)N2CC3CN(Cc4ccc(C(F)(F)F)cc4)CC3C2)c1 (centres unmarked) [Example 14] ?
≤ 0.1 µM

Test system FAAH (Mus musculus (Mouse)); read-out IC50; what value for CC(=O)N(C)c1cnn(C(=O)N2CC3CN(Cc4ccc5c(c4)OC(F)(F)O5)CC3C2)c1 (centres unmarked) [Example 242] ?
≤ 0.1 µM

Test system FAAH (Mus musculus (Mouse)); read-out IC50; what value for Cc1cc(-c2ccccc2)ccc1CN1CCN(C(=O)n2cc(NS(C)(=O)=O)cn2)CC1 [Example 219] ?
≤ 0.1 µM

Test system FAAH (Mus musculus (Mouse)); read-out IC50; what value for CS(=O)(=O)Nc1cnn(C(=O)N2CC3CN(Cc4ccc(N5CCCC5)cc4C(F)(F)F)CC3C2)c1 (centres unmarked) [Example 279] ?
0.1 to 1 µM

Test system FAAH (Mus musculus (Mouse)); read-out IC50; what value for CC(=O)N(C)c1cnn(C(=O)N2C[C@H]3C[C@H](N(C)Cc4cc(Cl)ccc4C(F)(F)F)C[C@H]3C2)c1 [Example 164] ?
≤ 0.1 µM

Test system FAAH (Mus musculus (Mouse)); read-out IC50; what value for COc1cccc(CN2CC3CN(C(=O)n4cc(N(C)C(C)=O)cn4)CC3C2)c1 (centres unmarked) [Example 181] ?
0.1 to 1 µM

====

- TARGET DESC: MAGL (Mus musculus (Mouse), UniProt O35678)
- Sequence (O35678 whole entry): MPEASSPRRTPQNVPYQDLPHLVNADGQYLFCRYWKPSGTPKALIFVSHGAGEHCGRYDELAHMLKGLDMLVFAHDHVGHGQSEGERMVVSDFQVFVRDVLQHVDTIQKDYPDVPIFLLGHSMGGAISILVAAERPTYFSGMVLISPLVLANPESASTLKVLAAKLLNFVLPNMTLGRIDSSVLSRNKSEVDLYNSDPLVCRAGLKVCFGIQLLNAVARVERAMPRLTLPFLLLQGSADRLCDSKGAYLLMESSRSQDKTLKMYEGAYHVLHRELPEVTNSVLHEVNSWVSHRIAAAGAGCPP
- TEST: In vitro competitive activity-based protein profiling, MAGL (mouse)
- Assay type: biochemical
- CONDITION CONTEXT: 1 μM, read-out: MAGL % inh. 1 μM (mouse)
READOUT NAME: inhibition at 1 µM

Please review the entries below; each comes with its answer.
- COMPOUND: "CC(=O)N(C)c1cnn(C(=O)N2CCC3(CCN(Cc4ccc(CN5CCOCC5)cc4)C3)C2)c1 (stereo not shown) [Example 231]"
  inhibition at 1 µM: "0 to 25%"
- COMPOUND: "CC(=O)N(C)c1cnn(C(=O)N2CCC3(CCN(Cc4cccc(Cl)c4)C3)CC2)c1 [Example 187]"
  inhibition at 1 µM: "≥ 75%"
- COMPOUND: "CC(=O)N(C)c1cnn(C(=O)N2CCC3(CCN(Cc4ccc(Cl)cc4Cl)C3)C2)c1 (stereo not shown) [Example 51]"
  inhibition at 1 µM: "≥ 75%"

inhibition at 1 µM for CC(=O)N(C)c1cnn(C(=O)N2CC3CN(Cc4cc(Cl)cc(N5CCCC5)c4)CC3C2)c1 (stereo not shown) [Example 110] ?
≥ 75%
